Hey, just so you know, these numbers are from patent US10370366B2.

Measured EC50 values are reported for all entries that follow.
- Experimental System: human F508del CFTR (Homo sapiens, UniProt P13569, DEL508-508)
- Construct: expressed in transfected cells; host or cells: Fisher Rat Thyroid (FRT) cells
- Sequence (P13569 with tags, fused parts or gaps DEL508-508): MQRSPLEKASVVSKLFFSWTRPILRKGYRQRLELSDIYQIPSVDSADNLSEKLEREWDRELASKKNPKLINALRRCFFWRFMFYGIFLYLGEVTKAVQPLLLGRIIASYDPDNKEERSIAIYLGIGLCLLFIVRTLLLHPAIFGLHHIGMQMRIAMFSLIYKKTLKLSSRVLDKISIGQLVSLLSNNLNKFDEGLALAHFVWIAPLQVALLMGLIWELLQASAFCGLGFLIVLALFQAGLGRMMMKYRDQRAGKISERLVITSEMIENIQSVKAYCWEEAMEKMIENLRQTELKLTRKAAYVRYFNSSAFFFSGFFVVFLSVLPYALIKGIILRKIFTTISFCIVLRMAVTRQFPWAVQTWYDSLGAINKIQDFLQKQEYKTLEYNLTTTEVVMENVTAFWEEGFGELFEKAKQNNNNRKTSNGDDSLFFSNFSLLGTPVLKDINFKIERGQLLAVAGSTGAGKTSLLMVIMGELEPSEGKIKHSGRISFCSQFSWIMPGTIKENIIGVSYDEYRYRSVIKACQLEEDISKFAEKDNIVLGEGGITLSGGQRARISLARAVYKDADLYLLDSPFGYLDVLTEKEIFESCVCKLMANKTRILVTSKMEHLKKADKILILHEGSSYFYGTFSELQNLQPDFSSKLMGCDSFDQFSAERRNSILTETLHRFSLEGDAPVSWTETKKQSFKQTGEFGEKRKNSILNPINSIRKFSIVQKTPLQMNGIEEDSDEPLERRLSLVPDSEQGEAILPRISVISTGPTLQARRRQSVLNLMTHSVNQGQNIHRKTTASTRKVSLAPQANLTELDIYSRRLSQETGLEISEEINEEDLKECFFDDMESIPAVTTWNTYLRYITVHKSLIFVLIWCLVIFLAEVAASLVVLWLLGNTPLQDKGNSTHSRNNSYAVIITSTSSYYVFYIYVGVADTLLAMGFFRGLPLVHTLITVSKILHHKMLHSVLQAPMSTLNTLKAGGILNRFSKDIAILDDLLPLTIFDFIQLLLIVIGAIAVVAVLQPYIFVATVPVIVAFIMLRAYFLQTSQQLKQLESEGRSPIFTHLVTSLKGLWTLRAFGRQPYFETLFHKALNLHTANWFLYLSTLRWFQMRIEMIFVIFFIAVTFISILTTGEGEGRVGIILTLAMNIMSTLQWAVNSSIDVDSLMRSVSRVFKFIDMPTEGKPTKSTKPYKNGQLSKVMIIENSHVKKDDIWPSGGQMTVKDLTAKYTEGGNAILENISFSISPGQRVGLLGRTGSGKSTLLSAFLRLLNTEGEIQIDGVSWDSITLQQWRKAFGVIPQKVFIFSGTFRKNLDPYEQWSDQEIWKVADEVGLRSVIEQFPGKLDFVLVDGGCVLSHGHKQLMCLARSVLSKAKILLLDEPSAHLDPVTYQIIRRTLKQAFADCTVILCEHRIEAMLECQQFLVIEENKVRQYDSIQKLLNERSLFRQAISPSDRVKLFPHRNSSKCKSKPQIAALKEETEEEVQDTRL
- Test Details: CFTR-YFP High Throughput Assay
- Format: cell-based
- Particulars: FRT cells expressing human F508del CFTR and YFP
Measured Quantity: EC50

| Molecule | Measured Quantity | Data Value |
| --- | --- | --- |
| CCN(C(=O)Cn1nc(-c2cccc(C#N)c2)c2ccccc2c1=O)c1ccc2c(c1)OC(F)(F)O2 | EC50 | < 10 µM |
| CCN(CC)C(=O)c1nn(CC(O)COCc2ccccc2)c(=O)c2c1c1c(C)cccc1n2C (stereo not shown) | EC50 | < 10 µM |
| [2H]C([2H])([2H])N(C(=O)Cn1nc(-c2cccc(C#N)c2)c2ccc(OC)cc2c1=O)c1ccc2nc(C)oc2c1 | EC50 | < 10 µM |
| CCc1ccc(N(CC)C(=O)Cn2nc(-c3cncnc3)c3ccccc3c2=O)cc1 | EC50 | > 20 µM |
| Cc1ccc(-n2nc(Cn3ccnc3)c3c4ccccc4n(C)c3c2=O)cc1 | EC50 | > 20 µM |
| Cc1ccc(-n2nc(C(=O)N(c3ccccc3)C(C)C)c3c(-c4ccccc4)onc3c2=O)cc1 | EC50 | < 10 µM |
| COc1ccc2c(-c3cccc(F)c3)nn(CC(=O)C3(c4ccc5c(c4)OC(F)(F)O5)CC3)c(=O)c2c1 | EC50 | < 10 µM |
| CCN(C(=O)c1nn(C[C@@H](O)CO)c(=O)c2c1c1ccccc1n2C)c1ccccc1 | EC50 | < 10 µM |
| CCc1ccc(N(CC)C(=O)Cn2nc(-c3ccc(C(=O)OC)cc3)c3ccccc3c2=O)cc1 | EC50 | > 20 µM |
| CCN(C(=O)c1nn(C(C)C)c(=O)c2c1c1sc(C)cc1n2C)c1ccccc1 | EC50 | > 20 µM |
| CCc1ccc(N(CC)C(=O)Cn2nc(-c3ccc(S(C)(=O)=O)cc3)c3ccccc3c2=O)cc1 | EC50 | < 10 µM |
| COc1cc2c(=O)n(CC(=O)N(C)c3ccc4c(c3)OC(F)(F)O4)nc(-c3cccc(C#N)c3)c2cc1Cl | EC50 | < 10 µM |
| CCN(C(=O)c1nn(-c2ccccc2)c(=O)c2c1c1ccccc1n2C)c1cccc(F)c1 | EC50 | > 20 µM |
| CCN(C(=O)Cn1nc(-c2ccc(C(=O)O)cc2)c2ccccc2c1=O)c1ccc2c(c1)OC(F)(F)O2 | EC50 | > 20 µM |
| CCN(C(=O)c1nn(CC(=O)N2CCOCC2)c(=O)c2c1c1ccccc1n2C)c1ccccc1 | EC50 | < 10 µM |
| CCOc1cc2c(=O)n(CC(=O)N(C)c3ccc4c(c3)OC(F)(F)O4)nc(-c3cccc(C#N)c3)c2cc1Cl | EC50 | < 10 µM |

====

Measured Emax values are reported for all entries that follow.
- Experimental System: human F508del CFTR (Homo sapiens, UniProt P13569, DEL508-508)
- Construct: expressed in transfected cells; host or cells: Fisher Rat Thyroid (FRT) cells
- Test Details: CFTR-YFP High Throughput Assay
- Type: cell-based
- Particulars: EMax normalized to the positive control; FRT cells expressing human F508del CFTR and YFP; read-out: % Efficacy

| Molecule | Emax |
| --- | --- |
| Cc1nc2ccc(N(C)C(=O)Cn3nc(-c4cccc(C#N)c4)c4ccc(OC5CCOCC5)cc4c3=O)cc2o1 [Example 120] | > 80% |
| CC(C)N(C(=O)c1nn(-c2ccccn2)c(=O)c2c1c1ccccc1n2C)c1ccccc1 [Example 186] | 10 to 30% |
| CCc1ccc(N(CC)C(=O)Cn2nc(-c3cccc(O)c3)c3ccccc3c2=O)cc1 [Example 9] | 10 to 30% |
| CCN(C(=O)c1nn(-c2ccccc2)c(=O)c2c1c1ccccc1n2C)c1cccc(F)c1 [Example 175] | 30 to 80% |
| COc1cc2c(=O)n(CC(=O)N(C)c3ccc4c(c3)OC(F)(F)O4)nc(-c3cccc(C#N)c3)c2cc1Cl [Example 96] | > 80% |
| COc1ccc2c(-c3ccc(S(N)(=O)=O)cc3)nn(CC(=O)N(c3ccc4c(c3)OC(F)(F)O4)C(C)C)c(=O)c2c1 [Example 76] | > 80% |
| CCN(C(=O)Cn1nc(-c2ccc(C(N)=O)cc2)c2ccc(OC)cc2c1=O)c1ccc2nc(C)oc2c1 [Example 84] | 30 to 80% |
| CCc1ccc(N(CC)C(=O)Cn2nc(-c3cncnc3)c3ccccc3c2=O)cc1 [Example 7] | 30 to 80% |
| CCN(C(=O)Cn1nc(C(=O)N(CC)c2ccccc2C#N)c2ccccc2c1=O)c1ccc2c(c1)OC(F)(F)O2 [Example 129] | 30 to 80% |
| CCN(C(=O)Cn1nc(-c2cccc(C#N)c2)c2ccc(OC)cc2c1=O)c1ccc2c(c1)OC(F)(F)O2 [Example 75] | > 80% |
| CCc1ccc(N(CC)C(=O)Cn2nc(Cc3cccnc3)c3cc(C(C)(C)C)ccc3c2=O)cc1 [Example 34] | 30 to 80% |
| CCc1ccc(N(CC)C(=O)Cn2nc(-c3cccc(N)c3)c3ccccc3c2=O)cc1 [Example 8] | 30 to 80% |
| CCN(C(=O)Cn1nc(-c2cccc(F)c2)c2ccccc2c1=O)c1ccc2c(c1)OC(F)(F)O2 [Example 23] | > 80% |
| CCN(C(=O)c1nn(-c2ccc(C)cc2)c(=O)c2c1c1ccccc1n2C)C1CC1 [Example 160] | 30 to 80% |
| CCc1ccc(N(CC)C(=O)Cn2nc(-c3ccc(C(N)=O)cc3)c3ccccc3c2=O)cc1 [Example 12] | 30 to 80% |
| CCOC(=O)c1ccc2c(=O)n(CC(=O)N(C)c3ccc4nc(C)oc4c3)nc(-c3cccc(Cl)c3)c2c1 [Example 66] | > 80% |
